- system: UniProt:P12527
- Sequence (P12527 whole entry): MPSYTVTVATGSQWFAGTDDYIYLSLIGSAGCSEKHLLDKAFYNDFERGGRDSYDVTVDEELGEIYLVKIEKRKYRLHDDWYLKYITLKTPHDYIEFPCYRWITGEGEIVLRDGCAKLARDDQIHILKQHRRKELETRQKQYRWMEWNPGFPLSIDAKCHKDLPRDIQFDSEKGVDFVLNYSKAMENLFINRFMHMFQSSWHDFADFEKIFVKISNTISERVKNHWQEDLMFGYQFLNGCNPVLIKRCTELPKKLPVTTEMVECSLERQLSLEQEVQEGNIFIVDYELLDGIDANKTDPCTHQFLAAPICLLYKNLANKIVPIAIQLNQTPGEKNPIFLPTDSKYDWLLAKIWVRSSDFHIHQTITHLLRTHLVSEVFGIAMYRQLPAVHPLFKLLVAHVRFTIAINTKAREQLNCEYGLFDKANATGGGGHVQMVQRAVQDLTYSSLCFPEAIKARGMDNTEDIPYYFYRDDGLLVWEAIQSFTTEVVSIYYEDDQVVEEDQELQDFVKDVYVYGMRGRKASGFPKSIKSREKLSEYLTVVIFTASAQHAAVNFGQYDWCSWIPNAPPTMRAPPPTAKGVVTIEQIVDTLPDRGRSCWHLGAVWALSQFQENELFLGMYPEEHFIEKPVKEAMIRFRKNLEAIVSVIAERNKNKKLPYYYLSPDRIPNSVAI
- measurement description: In vitro for inhibition of 5-HETE production in isolated rat polymorphonuclear leukocytes (PMNs)
- Assay type: functional
// bucketize IC50: low range (below 5 µM), mid range (5 µM to below 30 µM), high range (30 µM or more)

Here are 5 molecules together with their reported answers.
> print(dat)
                                   molecule       class
1  COC(=O)CCCC(=O)Nc1cccc(COc2ccc(C(C)=O)c(O)c2)c1  high range
2  CCCCCC(=O)c1ccc(OCc2cccc(NC(=O)CCC(=O)OC)c2)cc1OC   low range
3  CCc1ccc(OCc2cccc(NC(=O)CCC(=O)OC)c2)cc1OC   mid range
4  COC(=O)CC(=O)Nc1cccc(COc2ccc(C(C)=O)c(O)c2)c1   mid range
5  COC(=O)C1CC(=O)N(c2cccc(COc3ccc(C(C)=O)c(F)c3)c2)C1 (centres undefined)   mid range

Input line: Looking at CCCc1c(OCCCCc2nnn[nH]2)ccc(C(C)=O)c1O , which class would you pick?
Output line: high range
